Provide the reported pIC50 of each item.
Assay target: C-X-C chemokine receptor type 4 (Homo sapiens, UniProt P61073)
Sequence (P61073 whole entry): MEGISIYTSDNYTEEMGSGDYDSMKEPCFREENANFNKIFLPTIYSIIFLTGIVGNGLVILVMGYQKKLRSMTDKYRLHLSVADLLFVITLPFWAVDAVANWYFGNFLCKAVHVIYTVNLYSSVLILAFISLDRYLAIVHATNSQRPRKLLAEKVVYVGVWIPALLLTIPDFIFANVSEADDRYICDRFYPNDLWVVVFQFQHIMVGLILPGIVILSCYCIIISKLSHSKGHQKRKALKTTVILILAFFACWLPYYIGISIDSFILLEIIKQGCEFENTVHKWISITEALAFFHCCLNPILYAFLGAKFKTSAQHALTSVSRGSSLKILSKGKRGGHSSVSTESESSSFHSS
Protocol text: Displacement of 12G5 mAb from CXCR4 in human SUP-T1 cells incubated for 2 hrs by flow cytometry analysis
Assay type: cell-based
Peptide text beside a SMILES is read from it.
Answers are plain numbers, as −log10 of the molar value.

For the 3 compounds below, give their pIC50 values.
1. CC(C)C[C@H](NC(=O)[C@H](N)C(C)C)C(=O)N[C@@H](CCCNC(=N)N)C(=O)N[C@@H](Cc1c[nH]c2ccccc12)C(=O)N[C@@H](CO)C(=O)N[C@@H](CCCNC(=N)N)C(=O)N[C@@H](CCCCN)C(=O)N[C@@H](CC(C)C)C(=O)N1CCC[C@H]1C(=O)N[C@@H](CS)C(=O)N[C@H](C(=O)N[C@@H](CO)C(=O)O)C(C)C
2. CC[C@H](C)[C@H](NC(C)=O)C(=O)N[C@@H](CC(C)C)C(=O)N[C@@H](CCCNC(=N)N)C(=O)N[C@@H](Cc1c[nH]c2ccccc12)C(=O)N[C@@H](CO)C(=O)N[C@@H](CCCNC(=N)N)C(=O)N[C@@H](CCCCN)C(=O)N[C@@H](CC(C)C)C(=O)N1CCC[C@H]1C(=O)N[C@@H](CS)C(=O)N[C@H](C(=O)N[C@@H](CO)C(=O)O)C(C)C
3. CC(C)C[C@H](NC(=O)[C@@H](NC(=O)[C@@H]1CCCN1C(=O)[C@@H](NC(=O)[C@H](CO)NC(=O)[C@@H](NC(=O)[C@H](CCC(N)=O)NC(=O)[C@@H]1CCCN1C(=O)[C@@H](NC(=O)[C@H](CCCCN)NC(=O)[C@H](CCCCN)NC(=O)[C@@H](NC(=O)[C@H](Cc1ccc(O)cc1)NC(=O)[C@H](CCCNC(=N)N)NC(=O)[C@@H](NC(=O)[C@@H](N)CC(C)C)C(C)C)[C@@H](C)O)C(C)C)C(C)C)[C@@H](C)O)[C@@H](C)O)C(=O)O (H-LVRYTKKVPQVSTPTL-OH)

Return:
6.04
5.58
5.58
